# study system: Cytochrome P450 2C19 (Homo sapiens) (UniProt P33261)
# Sequence (P33261 whole entry, looked up): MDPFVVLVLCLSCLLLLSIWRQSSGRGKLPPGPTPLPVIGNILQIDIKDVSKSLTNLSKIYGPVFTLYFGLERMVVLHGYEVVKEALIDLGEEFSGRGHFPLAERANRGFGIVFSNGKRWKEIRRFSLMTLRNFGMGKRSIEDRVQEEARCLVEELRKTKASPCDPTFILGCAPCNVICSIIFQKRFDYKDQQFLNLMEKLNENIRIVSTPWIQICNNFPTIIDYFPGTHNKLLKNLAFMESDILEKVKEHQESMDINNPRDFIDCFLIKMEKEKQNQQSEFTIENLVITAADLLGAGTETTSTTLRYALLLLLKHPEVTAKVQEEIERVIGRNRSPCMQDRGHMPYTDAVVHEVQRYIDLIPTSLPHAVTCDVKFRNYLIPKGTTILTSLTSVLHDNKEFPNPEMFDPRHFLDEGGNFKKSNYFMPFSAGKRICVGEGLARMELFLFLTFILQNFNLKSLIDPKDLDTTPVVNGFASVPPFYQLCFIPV
# experimental protocol: Cytochrome P450 Family 2 Subfamily C Member 19 (CYP2C19) small molecule antagonists: luciferase reporter qHTS assay (AID 1671197); also: nearly all actives have a fitted effect of over 65% in size
# condition details: P450-Glo CYP2C19 enzyme, luciferin luminescence, 1 h; series mostly up to 115 µM
Inconclusive results are not listed. Calls of active or inactive are those of the source. Calls follow the shape of the dose curve; as a rule, active = well fitted inhibition curve with a large enough effect in the repeat runs; inconclusive = weak or mixed curves; inactive = no such curve, though single readings can be large or run the other way.
Just give me one of these, please: active, inactive

{"compound": "Nc1c(Br)cc([N+](=O)[O-])cc1[N+](=O)[O-]", "class name": "active"}
{"compound": "N#CCBr", "class name": "inactive"}
{"compound": "CCS(=O)(=O)CCSP(=O)(OC)OC", "class name": "inactive"}
{"compound": "CCC1(c2ccccc2)C(=O)NC(=O)NC1=O", "class name": "inactive"}
{"compound": "CCOP(=S)(OCC)SCSP(=S)(OCC)OCC", "class name": "active"}
{"compound": "COc1cc(OC)nc(NC(=O)NS(=O)(=O)c2ncccc2C(=O)N(C)C)n1", "class name": "inactive"}
{"compound": "O=NN1CCN(N=O)CC1", "class name": "inactive"}
{"compound": "Fc1cc(Br)ccc1CBr", "class name": "inactive"}

Consider now this further compound.
q: I would be grateful if you could indicate the recorded call for CC(COc1ccc(Oc2ccccc2)cc1)Oc1ccccn1 (centres undefined) .
a: active
